# PROTOCOL_SUMMARY: Sealed tube test of stability of dyes in refrigerant/refrigeration oil with metal coupons
# Type: physicochemical
# MEASUREMENT_CONTEXT: Table I, sealed tube data in R-12 at 350° F.
We begin with a simple list: items and their reported Stability, Mean Life.
ASSAY_METRIC: Stability, Mean Life (days)

molecule=CCCCCCCCCCCCNc1ccc(NCCCCCCCCCCCC)c2c1C(=O)c1ccccc1C2=O observed_value=2.3
molecule=CCCCOc1ccc(Nc2ccc(Nc3ccc(OCCCC)cc3)c3c2C(=O)c2ccccc2C3=O)cc1 observed_value=8.6
molecule=CC(C)(C)CNc1ccc(NCC(C)(C)C)c2c1C(=O)c1ccccc1C2=O observed_value=3.4
molecule=O=C1c2ccccc2C(=O)c2c(NC(c3ccccc3)c3ccccc3)ccc(NC(c3ccccc3)c3ccccc3)c21 observed_value=2.0
molecule=CCOc1ccc(Nc2ccc(Nc3ccc(OCC)cc3)c3c2C(=O)c2ccccc2C3=O)cc1 observed_value=8.5
molecule="CC(Nc1ccc(NC(C)c2ccccc2)c2c1C(=O)c1ccccc1C2=O)c1ccccc1 (stereo not drawn)" observed_value=3.5
